We begin with a simple list: items and their reported EC50.
- Test system: SARS-CoV-2
- run_description: microbe, parasite or virus in culture
- Type: cell-based
- test_settings: monoterpenes; infected Vero 76 cells, 0.02 MOI, 72 h, MTT; tested 1,000–4.91 μM; mean ± SD; read-out: EC50 SARS-Cov2
Return type: number; implicit unit µM.

{"compound": "CC12CCC(CC1)C(C)(C)O2 [1,8-Cineol]", "EC50 (µM)": 129}

Then this compound:
EC50 value, target or system SARS-CoV-2, for C=C(C)C1CC=C(C)C(=O)C1 (centres unmarked) [Carvone] : 86.5

* * *

Reported EC50 values for the following compounds.
- System: SARS-CoV-2
- run_description: microbe, parasite or virus in culture
- Format: cell-based
- test_settings: Severe acute respiratory syndrome coronavirus 2, Vero 76, 72 h, monoterpenes; infected Vero 76 cells, 0.02 MOI, 72 h, MTT; tested 1,000–4.91 μM; mean ± SD; read-out: EC50 SARS-Cov2

Look over these answered cases.
{"compound": "CC12CCC(CC1)C(C)(C)O2", "EC50": "> 100 µM"}
{"compound": "CCN(CC)CCCC(C)Nc1ccnc2cc(Cl)ccc12 (centres unmarked) [Chloroquine, reference compound]", "EC50": "7.57 µM"}
{"compound": "CC1CCC(C(C)C)C(O)C1 (centres unmarked)", "EC50": "> 1000 µM"}

get_value(item= "CC1=CC[C@@H](C(C)(C)O)CC1" , readout=EC50) returns > 1000 µM

Value of measured EC50 for the entry "Cc1ccc(C(C)C)cc1" : > 1000 µM

Lab book: EC50 of "CC(C)[C@@H]1CC[C@@H](C)CC1=O" noted as > 1000 µM

The compound listed as C=C(C)C1CC=C(C)C(=O)C1 (centres unmarked) shows EC50 equal to 80.2 µM

Form field EC50, entry CC1=CCC(O)(C(C)C)CC1 (centres unmarked) : > 1000 µM
